All figures here come from paper PMC9025810.

targetOrTestSystem: OATP1B2 (Mus musculus)
Sequence (Q9JJL3 whole entry): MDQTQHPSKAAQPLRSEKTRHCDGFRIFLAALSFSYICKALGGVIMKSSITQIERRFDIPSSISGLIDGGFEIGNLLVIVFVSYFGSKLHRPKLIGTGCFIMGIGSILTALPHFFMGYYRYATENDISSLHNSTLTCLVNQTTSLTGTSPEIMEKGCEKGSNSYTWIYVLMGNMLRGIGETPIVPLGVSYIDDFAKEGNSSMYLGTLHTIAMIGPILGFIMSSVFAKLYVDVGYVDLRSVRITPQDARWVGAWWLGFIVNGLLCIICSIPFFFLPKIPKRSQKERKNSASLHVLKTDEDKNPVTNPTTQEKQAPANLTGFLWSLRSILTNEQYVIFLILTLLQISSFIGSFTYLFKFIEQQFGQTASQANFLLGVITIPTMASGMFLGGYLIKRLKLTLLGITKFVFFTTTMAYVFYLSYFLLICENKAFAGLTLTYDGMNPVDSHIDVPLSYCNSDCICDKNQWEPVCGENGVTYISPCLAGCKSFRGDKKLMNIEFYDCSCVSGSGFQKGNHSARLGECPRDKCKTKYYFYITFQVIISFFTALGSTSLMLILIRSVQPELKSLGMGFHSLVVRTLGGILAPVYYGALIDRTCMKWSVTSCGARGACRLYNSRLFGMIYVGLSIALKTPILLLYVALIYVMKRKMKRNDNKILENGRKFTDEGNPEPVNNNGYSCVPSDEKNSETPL
method: Inhibition of OATP1B2-mediated [3H]EβG uptake in HEK293 cells
experimentalParameters: OATP1B2 IC50, HEK293 cells, 0.2 µM EβG, 15 min pre-incubation + 15 min co-incubation
*1 amine or outer side, *2 acyl side, *3 side chain or, on linkers, in order; H or OH if unused. Where a SMILES comes first, the peptide text is derived from it. Bridges are numbered along the chain shown (N, C = ends). [ ]: non-standard residue; d: D form. The star is where a group is joined. hTyr(3S-OH,4S-OH,3'-OSO3H) = N[C@H](C(=O)O)[C@H](O)[C@@H](O)c1ccc(O)c(OS(=O)(=O)O)c1; Orn(4R-OH,5R-OH) = O=C([C@H](C[C@@H](O)[C@@H](O)N[*:3])N[*:1])[*:2]; Pro(3S-OH,4S-Me) = C[C@H]1CN[C@H](C(=O)O)[C@H]1O; X1 = CCCCCOc1ccc(-c2cc(-c3ccc(C(=O)*)cc3)no2)cc1; Gln(3R-OH) = NC(=O)C[C@@H](O)[C@H](N)C(=O)O; Hyp = O=C(O)[C@@H]1C[C@@H](O)CN1
quantityMeasured: IC50

Check out these entries, answers already filled in.
Given `C[C@@H](c1ncncc1F)[C@](O)(Cn1cncn1)c1ccc(F)cc1F` , state its recorded IC50.
> 200 µM

Given `CC[C@H](C)C[C@H](C)CCCCCCCCC(=O)N[C@H]1C[C@@H](O)[C@@H](NCCN)NC(=O)[C@@H]2[C@@H](O)CCN2C(=O)[C@H]([C@H](O)CCN)NC(=O)[C@H]([C@H](O)[C@@H](O)c2ccc(O)cc2)NC(=O)[C@@H]2C[C@@H](O)CN2C(=O)[C@H]([C@@H](C)O)NC1=O` , state its recorded IC50.
> 100 µM

Given `CC[C@@H]([C@H](C)O)n1ncn(-c2ccc(N3CCN(c4ccc(OC[C@@H]5CO[C@@](Cn6cncn6)(c6ccc(F)cc6F)C5)cc4)CC3)cc2)c1=O` , state its recorded IC50.
> 80 µM

Shifting focus to the compound that follows.
Given CCCCCOc1ccc(-c2cc(-c3ccc(C(=O)N[C@H]4C[C@@H](O)[C@@H](O)NC(=O)[C@@H]5[C@@H](O)[C@@H](C)CN5C(=O)[C@H]([C@H](O)CC(N)=O)NC(=O)[C@H]([C@H](O)[C@@H](O)c5ccc(O)c(OS(=O)(=O)O)c5)NC(=O)[C@@H]5C[C@@H](O)CN5C(=O)[C@H]([C@@H](C)O)NC4=O)cc3)no2)cc1 [Micafungin] (X1-[Orn(4R-OH,5R-OH)]T[Hyp][hTyr(3S-OH,4S-OH,3'-OSO3H)][Gln(3R-OH)][Pro(3S-OH,4S-Me)]; lactam 1-C) , state its recorded IC50.
4.9 µM
